Origin of the recorded values: patent US20240400677A1

Task for the reader: assign each of the following binders its reported EC50 (read off the curve).
target: T1, extracellular binding domain of human SIRPγ (plate-coated) (human, UniProt Q9P1W8 29-360); experiment: ELISA, coated SIRP ECD (2 µg/mL), anti-human IgG, luminescence
T1 construct: also called hSIRPγ
T1 sequence (Q9P1W8 29-360 limits assumed): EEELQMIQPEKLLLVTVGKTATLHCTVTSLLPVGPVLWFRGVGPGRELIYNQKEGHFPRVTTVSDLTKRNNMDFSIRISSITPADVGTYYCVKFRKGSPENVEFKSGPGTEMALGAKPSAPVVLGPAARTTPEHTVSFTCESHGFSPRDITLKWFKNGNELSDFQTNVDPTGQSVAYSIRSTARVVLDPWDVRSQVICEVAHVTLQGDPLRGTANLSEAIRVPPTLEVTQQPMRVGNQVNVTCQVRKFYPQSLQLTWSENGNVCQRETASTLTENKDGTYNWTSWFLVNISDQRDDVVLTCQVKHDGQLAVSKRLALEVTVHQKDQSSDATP

Enquiry: GET /values?readout=EC50 (read off the curve)&item= Antibody 95 (antibody, V domains shown) VH: QVQLVQSGAEVKKPGASVKVSCKASGYTFTSYYMHWVRQAPGQGLEWMGWMNPNSGNTGYAQKFQGRVTMTRDTSTSTVYMELSSLRSEDTAVYYCARDQMYSSYGMDVWGQGTTVTVSS VL: DIQMTQSPSSLSASVGDRVTITCRASESITNWLAWYQQKPGKAPKLLIYKASSLESGVPSRFSGSGSGTDFTLTISSLQPEDFATYYCQQSYGTPYTFGQGTKVEIK
Return: ~0.07 µg/mL

Enquiry: What EC50 (read off the curve) value was documented for this binder, Antibody 81 (antibody, V domains shown) VH: QVQLVQSGAEVKKPGASVKVSCKASGYTFTSYDINWVRQAPGQGLEWMGWISGYNGNTNYAQKFQGRVTMTRDTSTSTVYMELSSLRSEDTAVYYCARSFDWLLLLDYWGQGTLVTVSS VL: DIQMTQSPSSLSASVGDRVTITCRASQSISSWLAWYQQKPGKAPKLLIYDATTLESGVPSRFSGSGSGTDFTLTISSLQPEDFATYYCQQYDSYPWTFGQGTKLEIK ?
Return: ~0.02 µg/mL

Enquiry: Param item = Antibody 79 (antibody, V domains shown) VH: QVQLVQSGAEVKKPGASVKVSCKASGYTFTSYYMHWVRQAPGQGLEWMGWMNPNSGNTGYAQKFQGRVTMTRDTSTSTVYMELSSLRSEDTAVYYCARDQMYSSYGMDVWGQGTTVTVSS VL: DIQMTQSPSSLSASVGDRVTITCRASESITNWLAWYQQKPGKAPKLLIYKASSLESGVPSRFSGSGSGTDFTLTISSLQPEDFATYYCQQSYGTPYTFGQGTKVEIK ; retrieve measured EC50 (read off the curve).
Return: ~0.03 µg/mL
